Ref: patent US11566007B2

molecular target: KRAS G13D (Homo sapiens (Human), UniProt P01116+P62937, G13D); assay: Ras-Raf (BRAF RBD) disruption / FRET / MOA assay, KRAS G13D; type: biochemical; conditions: read-out: IC50* KRAS G13D FRET data
Sequence (P01116-2 other isoform, or with tags, fused parts or gaps G13D): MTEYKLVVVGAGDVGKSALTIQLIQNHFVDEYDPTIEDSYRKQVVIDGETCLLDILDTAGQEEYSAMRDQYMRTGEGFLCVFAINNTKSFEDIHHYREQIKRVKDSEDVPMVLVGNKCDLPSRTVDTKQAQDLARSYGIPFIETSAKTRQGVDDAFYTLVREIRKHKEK
Sequence (P62937 whole entry): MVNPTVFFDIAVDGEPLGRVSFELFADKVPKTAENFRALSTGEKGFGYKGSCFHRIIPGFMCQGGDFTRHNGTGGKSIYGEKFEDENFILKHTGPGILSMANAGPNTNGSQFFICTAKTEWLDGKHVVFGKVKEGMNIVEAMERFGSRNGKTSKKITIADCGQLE

# compound, IC50
rows = [
    ("C=CC(=O)N1CC[C@H](C(=O)N(C)[C@H](C(=O)N[C@@H]2C(=O)N3CCC[C@H](N3)C(=O)OCC(C)(C)Cc3c(-c4cncnc4)n(CC)c4ccc(cc34)-c3cccc(c3)[C@@H]2OC)C(C)C)C1 [Example A271]", "> 10 µM"),
    ("CCn1c(-c2cccnc2[C@H](C)OC)c2c3cc(ccc31)-c1csc(n1)C[C@H](NC(=O)[C@H](C(C)C)N1CC[C@]3(CCN(C(=O)C#CC(C)(C)N(C)C)C3)C1=O)C(=O)N1CCC[C@H](N1)C(=O)OCC(C)(C)C2 (atropisomer, axis not shown) [Example A411]", "1 to 10 µM"),
    ("C=CC(=O)N1CC[C@@H](C(=O)N(C)[C@H](C(=O)N[C@H]2Cc3cc(O)cc(c3)-c3ccc4c(c3)c(c(-c3cncnc3)n4CC)CC(C)(C)COC(=O)[C@@H]3CCCN(N3)C2=O)C(C)C)O1 [Example A179]", "1 to 10 µM"),
    ("C=CC(=O)N1C[C@H](C(=O)N(C)[C@H](C(=O)N[C@H]2Cc3cccc(c3)-c3ccc4c(c3)c(c(-c3cccnc3[C@H](C)OC)n4CC)CC(C)(C)COC(=O)[C@@H]3CCCN(N3)C2=O)C(C)C)[C@@H](C)C1 (atropisomer, axis not shown) [Example A451]", "1 to 10 µM"),
]

----------
Molecular target: KRAS Q61H (Homo sapiens (Human), UniProt P01116+P62937, Q61H)
Sequence (P01116-2 other isoform, or with tags, fused parts or gaps Q61H): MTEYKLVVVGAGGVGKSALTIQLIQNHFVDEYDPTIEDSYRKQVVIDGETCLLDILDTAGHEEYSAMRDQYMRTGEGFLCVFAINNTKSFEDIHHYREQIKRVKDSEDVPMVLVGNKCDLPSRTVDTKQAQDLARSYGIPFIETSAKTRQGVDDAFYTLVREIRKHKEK
Sequence (P62937 whole entry): as the sequence (P62937 whole entry) above
Experiment: Ras-Raf (BRAF RBD) disruption / FRET / MOA assay, KRAS Q61H
Assay type: biochemical
Conditions: Ras-Raf disruption/FRET/MOA assay; class symbols; read-out: KRAS Q61H FRET data IC50
Protocol: The purpose of this biochemical assay is to measure the ability of test compounds to facilitate ternary complex formation between a nucleotide-loaded Ras isoform and cyclophilin A; the resulting ternary complex disrupts binding to a BRAF^RBD construct, inhibiting Ras signaling through a RAF effector. […]. Compound is present in plate wells as a 10-point 3-fold dilution series starting at a final concentration of 30 μM. […]

# compound, IC50
measured = [
    ("CO[C@@H](C)c1ncccc1-c1c2c3cc(ccc3n1CC(F)(F)F)N1CCO[C@@H](C[C@H](NC(=O)[C@H](C(C)C)N3CC[C@]4(CCN(C(=O)C#CC(C)(C)N(C)C)C4)C3=O)C(=O)N3CCC[C@H](N3)C(=O)OCC(C)(C)C2)C1 (atropisomer, axis not shown) [Example A642]", "1 to 10 µM"),
    ("CCn1c(-c2cccnc2[C@H](C)OC)c2c3cc(ccc31)-c1cccc(c1)C[C@H](NC(=O)[C@@H](COC1CN(C(=O)C#C[C@H]3COCCN3C)C1)C(C)C)C(=O)N1CCC[C@H](N1)C(=O)OCC(C)(C)C2 (atropisomer, axis not shown) [Example A644]", "> 10 µM"),
]

----------
biological target: NRAS Q61R (Homo sapiens (Human), UniProt P01111+P62937, Q61R); assay: Ras-Raf (BRAF RBD) disruption / FRET / MOA assay, NRAS Q61R; type: biochemical; details: NRAS Q61R; Ras-Raf disruption/FRET/MOA assay; read-out: IC50* NRAS Q61R FRET data
Sequence (P01111 whole entry Q61R): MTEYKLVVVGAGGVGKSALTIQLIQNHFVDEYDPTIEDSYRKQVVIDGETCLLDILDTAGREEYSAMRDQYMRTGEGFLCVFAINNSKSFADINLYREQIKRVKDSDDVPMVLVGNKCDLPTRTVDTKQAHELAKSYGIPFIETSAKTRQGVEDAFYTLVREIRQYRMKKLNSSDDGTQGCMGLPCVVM
Sequence (P62937 whole entry): as the sequence (P62937 whole entry) above
quantity_name: IC50

# compound, observed_value
rows = [
    ("C=CC(=O)N1CC[C@H](C(=O)N(C)[C@H](C(=O)N[C@H]2Cc3cc(O)cc(c3)-c3ccc4c(c3)c(c(-c3csc(N(C)C)n3)n4CC)CC(C)(C)COC(=O)[C@@H]3CCCN(N3)C2=O)C(C)C)C1 [Example A303]", "> 10 µM"),
    ("C=CC(=O)N1CC[C@H](C(=O)N(C)[C@H](C(=O)N[C@H]2Cc3cc(O)cc(c3)-c3ccc4c(c3)c(c(-c3ccc(N5CCN(C)CC5)nc3)n4CC)CC(C)(C)COC(=O)[C@@H]3CCCN(N3)C2=O)C(C)C)C1 [Example A089]", "1 to 10 µM"),
    ("CCn1c(-c2cccnc2[C@H](C)OC)c2c3cc(ccc31)-c1cnc(o1)C[C@H](NC(=O)[C@@H](COC1CN(C(=O)C#CC(C)(C)N(C)C)C1)C(C)C)C(=O)N1CCC[C@H](N1)C(=O)OCC(C)(C)C2 (atropisomer, axis not shown) [Example A649]", "> 10 µM"),
    ("CCn1c(-c2cccnc2[C@H](C)OC)c2c3cc(ccc31)-c1cccc(c1)C[C@H](NC(=O)[C@H](C(C)C)N1CC[C@]3(CCN(C(=O)C#CC(C)(C)N(C)C)C3)C1=O)C(=O)N1CCC[C@H](N1)C(=O)OCC(C)(C)C2 (atropisomer, axis not shown) [Example A534]", "1 to 10 µM"),
    ("CCn1c(-c2cccnc2[C@H](C)OC)c2c3cc(ccc31)C1=CCCN(C1)C[C@H](NC(=O)[C@H](C(C)C)N(C)C(=O)C1(F)CCN(C(=O)C#CC(C)(C)N(C)C)CC1)C(=O)N1CCC[C@H](N1)C(=O)OCC(C)(C)C2 (atropisomer, axis not shown) [Example A591]", "0.1 to 1 µM"),
    ("C=C(C)C(=O)N1CC2(CCN(C(=O)N(C)[C@H](C(=O)N[C@H]3Cc4nc(cs4)-c4ccc5c(c4)c(c(-c4cccnc4[C@H](C)OC)n5CC)CC(C)(C)COC(=O)[C@@H]4CCCN(N4)C3=O)C(C)C)CC2)C1 (atropisomer, axis not shown) [Example A651]", "0.1 to 1 µM"),
    ("CCn1c(-c2cccnc2[C@H](C)OC)c2c3cc(ccc31)-c1cccc(c1)C[C@H](NC(=O)[C@@H](COC1CN(C(=O)C#CC(C)(C)O)C1)C(C)C)C(=O)N1CCC[C@H](N1)C(=O)OCC(C)(C)C2 (atropisomer, axis not shown) [Example A708]", "> 10 µM"),
    ("CCn1c(-c2cccnc2[C@H](C)OC)c2c3cc(ccc31)-c1cccc(c1)C[C@H](NC(=O)[C@H](C(C)C)N1CO[C@]3(CCN(C(=O)C#CC(C)(C)N4CCC4)C3)C1=O)C(=O)N1CCC[C@H](N1)C(=O)OCC(C)(C)C2 (atropisomer, axis not shown) [Example A351]", "1 to 10 µM"),
]

----------
Catalogue of pIC50 values
target: KRAS G12D (Homo sapiens (Human), UniProt P01116+P62937, G12D); assay: Ras-Raf (BRAF RBD) disruption / FRET / MOA assay, KRAS G12D; assay type: biochemical; settings: Ras-Raf disruption/FRET/MOA assay; class symbols; read-out: KRAS G12D FRET data IC50
Sequence (P01116-2 other isoform, or with tags, fused parts or gaps G12D, one chain of several): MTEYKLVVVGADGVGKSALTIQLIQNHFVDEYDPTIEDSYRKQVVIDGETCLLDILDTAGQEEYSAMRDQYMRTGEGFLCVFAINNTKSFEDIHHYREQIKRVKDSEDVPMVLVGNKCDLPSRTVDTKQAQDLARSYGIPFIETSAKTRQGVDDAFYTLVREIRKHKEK
pIC50: −log10 of the molar value.

# molecule, pIC50
records = [
    ("C=CC(=O)N1CC[C@H](C(=O)N(C)[C@H](C(=O)N[C@H]2Cc3cccc(c3)-c3ccc4c(c3)c(c(-c3cccnc3[C@H](C)OC)n4CC(F)F)CC(C)(C)COC(=O)[C@@H]3CCCN(N3)C2=O)C(C)C)C1 (atropisomer, axis not shown)", "< 5.00"),
    ("C=CC(=O)C1CC[C@H](C(=O)N(C)[C@H](C(=O)N[C@H]2Cc3cc(O)cc(c3)-c3ccc4c(c3)c(c(-c3cnn(C)c3[C@H](C)OC)n4CC)CC(C)(C)COC(=O)[C@@H]3CCCN(N3)C2=O)C(C)C)C1 (stereo partly shown)", "5.00 to 6.00"),
    ("CCn1c(-c2cccnc2[C@H](C)OC)c2c3cc(ccc31)-c1cccc(c1)C[C@H](NC(=O)[C@H](C(C)C)N1CC[C@@]3(CCN(C(=O)C#C[C@@H]4COCCN4C4COC4)C3)C1=O)C(=O)N1CCC[C@H](N1)C(=O)OCC(C)(C)C2", "5.00 to 6.00"),
    ("C=CC(=O)N1CC[C@H](C(=O)N(C)[C@H](C(=O)N[C@H]2CN3CCC=C(C3)c3ccc4c(c3)c(c(-c3cccnc3[C@H](C)OC)n4CC)CC(C)(C)COC(=O)[C@@H]3CCCN(N3)C2=O)C(C)C)C1 (atropisomer, axis not shown)", "< 5.00"),
]

----------
biological target: NRAS G12C (Homo sapiens (Human), UniProt P01111+P62937, G12C); assay: Ras-Raf (BRAF RBD) disruption / FRET / MOA assay, NRAS G12C; format: biochemical; settings: read-out: IC50* NRAS G12C FRET data
Sequence (P01111 whole entry G12C): as the sequence (P01111 whole entry Q61R) above, with G12C, R61Q counted along it
Sequence (P62937 whole entry): as the sequence (P62937 whole entry) above
Catalogue of IC50 values
quantity_name: IC50

# molecule, observed_value
measured = [
    ("C=CC(=O)N1CC[C@H](C(=O)N2CC[C@H](C)[C@H]2C(=O)N[C@H]2Cc3cccc(c3)-c3ccc4c(c3)c(c(-c3cccnc3[C@H](C)OC)n4CC)CC(C)(C)COC(=O)[C@@H]3CCCN(N3)C2=O)C1 (atropisomer, axis not shown) [Example A494]", "0.1 to 1 µM"),
    ("CCn1c(-c2ccccc2CN(C)C)c2c3cc(ccc31)-c1cc(O)cc(c1)C[C@H](NC(=O)[C@H](C(C)C)N(C)C(=O)c1ncc(NC(=O)/C=C/CN(C)C)s1)C(=O)N1CCC[C@H](N1)C(=O)OCC(C)(C)C2 (atropisomer, axis not shown) [Example A163]", "1 to 10 µM"),
    ("C=CS(=O)(=O)N1CC2(CCN([C@H](C(=O)N[C@H]3Cc4cc(O)cc(c4)-c4ccc5c(c4)c(c(-c4cccnc4[C@H](C)OC)n5CC)CC(C)(C)COC(=O)[C@@H]4CCCN(N4)C3=O)C(C)C)C2=O)C1 (atropisomer, axis not shown) [Example A297]", "< 0.01 µM"),
    ("C=CC(=O)N1C[C@H](F)[C@](F)(C(=O)N(C)[C@H](C(=O)N[C@H]2Cc3cccc(c3)-c3ccc4c(c3)c(c(-c3cccnc3[C@H](C)OC)n4CC)CC(C)(C)COC(=O)[C@@H]3CCCN(N3)C2=O)C(C)C)C1 (atropisomer, axis not shown) [Example A397]", "0.01 to 0.1 µM"),
]
